Assay: chemical genetic growth profiling, strain panel (AID 1159580);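 also: tested at 20 µM; growth read once vehicle control cultures reached saturation at 30 °C; 1 = growth at the plate median or of vehicle wells; lower values mean less growth of the strain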
Conditions: S. cerevisiae deletion strains, growth OD, locus YKL085W, strain MDH1
Among all 5,500 compounds or so, about 2,000 (36%) were called active. Inconclusive results (about 18%) are left out. Rule as the data show it: active = normalized growth mostly below about 0.91 (no sharp cut-off); inconclusive = no clear call, values can overlap the other calls; inactive = mostly above about 0.92. Some of the results follow.
Classes used: Y = active, N = inactive

Compound | Group
CC(=O)OCC(COC(C)=O)OC(C)=O | N
CCCNC1CCc2nc(N)sc2C1 (stereo not drawn) | N
C=C1C(C)C2C(Cc3ccccc3)NC(=O)C23OC(=O)/C=C/C(O)CCCC(C)C/C=C/C3C1O (stereo not drawn) | N
CC(=O)OCC(OC(C)=O)C(OC(C)=O)C(OC(C)=O)C(OC(C)=O)C(COC(C)=O)OC(C)=O (stereo not drawn) | N
CC[C@H](C)C(=O)O[C@H]1C[C@@H](C)C=C2C=C[C@H](C)[C@H](CC[C@@H]3C[C@@H](O)CC(=O)O3)[C@H]21 | N
CCCC(=O)O[C@]1(C(=O)CO)CCC2[C@@H]3CCC4=CC(=O)CC[C@]4(C)C3[C@@H](O)C[C@@]21C (stereo partly drawn) | N
CC(C)COCC(CN(Cc1ccccc1)c1ccccc1)N1CCCC1 (stereo not drawn) | N
O=C(O)c1cc2cc(Cc3cccnc3)ccc2o1 | N
O=C1OC(c2ccc(O)cc2)(c2ccc(O)cc2)c2ccccc21 | N
O=C(C1CCCCC1)N1CC(=O)N2CCc3ccccc3C2C1 (stereo not drawn) | N
COC(=O)C[C@H]1C(C)(C)C(=O)[C@@H]2CC3=C(CC[C@]4(C)C3=CC(=O)O[C@H]4c3ccoc3)[C@@]1(C)C2=O | N
CC1(C)C2(Cl)C(Cl)C(Cl)C(Cl)(C(Cl)Cl)C1(Cl)C2Cl (stereo not drawn) | N
CN1C(C(=O)Nc2ccccn2)=C(O)c2ccccc2S1(=O)=O | N
O=C(O)c1ccccc1-c1c2cc(Br)c(=O)cc-2oc2[c]([Hg])c(O)c(Br)cc12 | Y
O=c1cc[nH]c(=S)[nH]1 | N
CCC(C)(C)C(=O)O[C@H]1C[C@@H](C)C=C2C=C[C@H](C)[C@H](CC[C@@H]3C[C@@H](O)CC(=O)O3)[C@H]21 | N
C#CCCCCCCCCCCCC(=O)CC(O)COC(C)=O (stereo not drawn) | N
O=C(Cn1ccnc1[N+](=O)[O-])NCCO | N
O=C(O)CN1C(=O)c2cccc3cccc(c23)C1=O | N
COc1c2ccoc2c(OC)c2oc(=O)ccc12 | N
Cc1c(Cl)cccc1Nc1ccccc1C(=O)O | Y
C=C1C(=O)O[C@@H]2C[C@@]3(C)CCC[C@H](C)C3=C[C@H]12 | Y
CCN(CC)C(=O)c1cccc(C)c1 | N
C=C1C(C)C2C(Cc3ccccc3)NC(=O)C23OC(=O)/C=C/C(=O)CCCC(C)C/C=C/C3C1O (stereo not drawn) | N
Cc1cc(-c2ccccc2)nnc1NCCN1CCOCC1 | N
COC(=O)C(O)c1ccccc1 (stereo not drawn) | N
CC(C)[C@@H]1CC[C@@H](C)C[C@H]1O | N
O=C1CC2OCC=C3CN4CC[C@]56c7ccccc7N1C5[C@H]2[C@H]3CC46 (stereo partly drawn) | N

====

Measured normalized growth, listed per entry for reference.
Test: chemical genetic growth profiling, strain panel (AID 1159580)
Conditions: S. cerevisiae deletion strains, growth OD, locus YJL095W, strain BCK1, active compounds read low
Screen size: about 5,500 compounds; about 2,000 (36%) were called active. About 18% were inconclusive and are not listed. The list shows a part of the results.

Compound | normalized growth
COc1ccc2c(c1O)OCC1c3cc4c(cc3OC21)OCO4 (stereo not drawn) | 0.924
OC(=Cc1nc2ccccc2nc1C=C(O)c1ccc(Cl)cc1)c1ccc(Cl)cc1 | 0.933
O=C(/C=C/Sc1nc2ccccc2s1)c1ccc(Cl)cc1 | 0.854
C=C1CCC(=O)C(C)CCC2C1CC2(C)C (stereo not drawn) | 1.02
OC(CN1CCN(c2nc3ccc(Cl)cc3s2)CC1)Cn1ccc2ccccc21 (stereo not drawn) | 0.954
O=[N+]([O-])c1ccc2oc(C(O)c3ccc(-c4ccccc4)cc3)cc2c1 (stereo not drawn) | 0.905
O=C(Nc1ccc(Cl)cc1)OCCSc1nc2ccccc2s1 | 0.845
CC(=O)ON=C1c2cc([N+](=O)[O-])ccc2-c2ccc([N+](=O)[O-])cc21 | 0.778

====

In this section we review reported normalized growth values for a set of compounds.
Assay: chemical genetic growth profiling, strain panel (AID 1159580)
Settings: S. cerevisiae deletion strains, growth OD, locus YML120C, strain ndi1, active compounds read low
Screen size: about 5,500 compounds; about 2,000 (36%) were called active. Inconclusive results (about 18%) are left out. The list shows a part of the results.
Value Kind: normalized growth

Compound | Endpoint Result
NC(=O)c1cccc(N)c1 | 0.994
CCCC(=O)O[C@]1(C(=O)CO)CCC2[C@@H]3CCC4=CC(=O)CC[C@]4(C)C3[C@@H](O)C[C@@]21C (stereo not given in full) | 0.992
OC(Cn1cncn1)(Cn1cncn1)c1ccc(F)cc1F | 1
O=C1NC(=O)C(=O)C(=O)N1 | 0.99
CC(C)(C)CC(C)(C)c1ccc(O)c(Cc2ccc(Cl)cc2Cl)c1 | 1

====

Experiment: chemical genetic growth profiling, strain panel (AID 1159580);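 also: tested at 20 µM; growth read once vehicle control cultures reached saturation at 30 °C; 1 = growth at the plate median or of vehicle wells; lower values mean less growth of the strain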
Conditions: S. cerevisiae deletion strains, growth OD, locus YCL029C, strain bik1, active compounds read low
Out of some 5,500 compounds screened, about 2,000 (36%) were called active. Inconclusive results (about 18%) are left out. The list shows a part of the results.

Line Notation | normalized growth
CC(=O)Oc1c(C)cccc1C(=O)O | 1.01
C=C1C(=O)O[C@@H]2C[C@@]3(C)CCC[C@H](C)C3=C[C@H]12 | 0.949
CCN(CC)C(=O)c1cccc(C)c1 | 0.992

====

Test: chemical genetic growth profiling, strain panel (AID 1159580);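 also: tested at 20 µM; growth read once vehicle control cultures reached saturation at 30 °C; 1 = growth at the plate median or of vehicle wells; lower values mean less growth of the strain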
Conditions: S. cerevisiae deletion strains, growth OD, locus YML124C, strain tub3, active compounds read low
In all, about 5,500 compounds went through this assay and about 2,000 (36%) were called active. About 18% were inconclusive and are not listed. The list shows a part of the results.
As shown below, each of these molecules has a reported normalized growth value.

Molecule | normalized growth
COc1cc(-c2coc3cc(OCc4ccccc4)c(OC)c(O)c3c2=O)cc(OCc2ccccc2)c1OC | 0.983
Cn1c(=O)c2[nH]cnc2n(C)c1=O | 0.969
C[N+]1(C)C2CC(OC(=O)[C@@H](CO)c3ccccc3)CC1C1OC12 (some centres undefined) | 1.03
CCC(C)c1cnc(CC(C)C)c(=O)n1O (centres undefined) | 1.02
COc1cc2occ(-c3ccccc3)c(=O)c2c(OC)c1C | 0.942
CCCCOC(=O)c1ccccc1C(=O)OCCCC | 0.975
CC(C)C(C)/C=C/C(C)[C@H]1CCC2C3=CCC4CC(=O)CC[C@]4(C)C3CC[C@@]21C (some centres undefined) | 1.02
C[C@@H]1C(=O)OC2[C@H](O)C34[C@@H]5OC(=O)[C@@]3(O[C@@H]3OC(=O)[C@H](O)[C@@]34[C@H](C(C)(C)C)[C@H]5O)[C@]21O (some centres undefined) | 1.02
COc1c(OC)c2occc2c2oc(=O)ccc12 | 0.968
CC(C)NNC(=O)c1ccncc1 | 1.01
O=S1OCC2C(CO1)C1(Cl)C(Cl)=C(Cl)C2(Cl)C1(Cl)Cl (centres undefined) | 0.976
COc1ccc(CCN2CCC(Nc3nc4ccccc4n3Cc3ccc(F)cc3)CC2)cc1 | 0.991
CC(=O)OCC(COC(C)=O)OC(C)=O | 1
CCCNC1CCc2nc(N)sc2C1 (centres undefined) | 1

====

Assay: chemical genetic growth profiling, strain panel (AID 1159580);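 also: tested at 20 µM; growth read once vehicle control cultures reached saturation at 30 °C; 1 = growth at the plate median or of vehicle wells; lower values mean less growth of the strain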
Conditions: S. cerevisiae deletion strains, growth OD, locus YNL153C, strain GIM3, active compounds read low
The whole screen tested about 5,500 compounds, of which about 2,000 (36%) were called active. Not shown: some 18% with an inconclusive outcome. This is one part of the list.
normalized growth: recorded values
Value Kind: normalized growth

Compound | Endpoint Result
CCN(CC)CCNC(=O)c1c(-c2c(Cl)cccc2Cl)noc1C | 0.99
Oc1ccc(Cl)cc1Cc1cc(Cl)ccc1O | 0.0714
CO[C@@]1(NC(=O)CSCC#N)C(=O)N2C(C(=O)O)=C(CSc3nnnn3C)CSC21 (stereo partly drawn) | 1.01
O=C(C1CCCCC1)N1CC(=O)N2CCc3ccccc3C2C1 (stereo not drawn) | 1.03
COC(=O)C1=C(C)NC(C)=C(C(=O)OC)C1c1ccc(-c2ccsc2C(=O)OC)o1 | 0.99
O=C1CCC(c2cccs2)=NN1 | 0.998
CO/N=C(/C(=O)N[C@@H]1C(=O)N2C(C(=O)O)=C(COC(C)=O)CS[C@H]12)c1csc(N)n1 | 1.07
COc1ccc2c(c1O)OCC1c3cc4c(cc3OC21)OCO4 (stereo not drawn) | 0.936
O=C(O)CN(CC(=O)O)Cc1cc2c(-c3ccccc3C(=O)O)c3cc(CN(CC(=O)O)CC(=O)O)c(=O)cc-3oc2cc1O | 0.998
Oc1ccc(Cl)cc1 | 1
O=C(CSCc1cccc2ccccc12)NNC(=O)c1ccc(F)cc1 | 0.985
CCOC(=O)Nc1ccsc1C(=O)OC | 0.987
Cc1ccc(NC(=O)c2c(F)cccc2Cl)c(C(=O)Nc2ccc(F)cc2)c1 | 1.03
N#C/C(=C\c1ccc(Oc2ccccc2)nc1)S(=O)(=O)c1ccccc1 | 0.993
N#Cc1ncc(C(F)(F)F)cc1Oc1ccc(Cl)cc1 | 0.892
CC1C[C@H]2CC(=O)[C@H]3CCCN4CCC[C@H]2[C@]34C1 (stereo partly drawn) | 1.01
N#Cc1c(F)cccc1Oc1ccc(F)cc1 | 0.991
CCCCC#Cc1nc(N)c2ncn([C@@H]3O[C@H](C(=O)NCC)[C@@H](O)[C@H]3O)c2n1 | 1.19
